system: HCI-017.E2 (organoid from an ER-positive breast cancer xenograft); experiment: CTG-3D luminescence at 96 h relative to day-0 seeding control (ratio to day 0); higher = more growth / less cytotoxicity; PDxO 3D drug screen, 96 h, CTG-3D normalised to day-0 seeding control.; details: 0.1 µM; days in culture: 85
Could you please report measured CTG-3D luminescence at 96 h for the items listed next?
The answer should be a number; do not append a unit.

Request the reported CTG-3D luminescence at 96 h associated with NC(=O)Nc1cc(-c2cccc(F)c2)sc1C(=O)N[C@H]1CCCNC1 [AZD7762]
2.37

Could you do the same for Cc1nc(-c2cn3c(n2)-c2ccc(-c4cnn(C(C)(C)C(N)=O)c4)cc2OCC3)n(C(C)C)n1 [taselisib] , please?
0.848

Here is the next compound: CC(=O)O[C@H]1C(=O)[C@@]2(C)[C@H]([C@H](OC(=O)c3ccccc3)[C@]3(O)C[C@H](OC(=O)[C@H](O)[C@@H](NC(=O)c4ccccc4)c4ccccc4)C(C)=C1C3(C)C)[C@]1(OC(C)=O)CO[C@@H]1C[C@@H]2O [paclitaxel]
0.935

Further, for CCc1c2c(nc3ccc(O)cc13)-c1cc3c(c(=O)n1C2)COC(=O)[C@]3(O)CC [SN-38] ?
2.32
